Assay: Plasma and brain pharmacokinetics in C57BL/6 mice
Assay type: in vivo
Conditions: male, C57BL/6, mouse, brain, ip; C57BL6 mice, single dose 20 mg/kg i.p.; read-out: brain half-life (converted)
QUANTITY_NAME: half-life (h)
One number for each entry, in h.

Prompt: Sample CN(C)CCCn1c(SCCc2c[nH]c3ccccc23)nc2ccc(F)cc2c1=O [TG15-132] — what was its half-life?
Response: 2.7

----------
Experiment: Plasma and brain pharmacokinetics in C57BL/6 mice
Assay type: in vivo
Details: male, C57BL/6, mouse, plasma, ip; C57BL6 mice, single dose 20 mg/kg i.p.; read-out: plasma half-life (converted)
QUANTITY_NAME: half-life (h)
Numbers only, in h.

Prompt: Sample CN(C)CCCn1c(SCCc2c[nH]c3ccccc23)nc2ccc(F)cc2c1=O — what was its half-life?
Response: 2.7

----------
Experiment: In vivo pharmacokinetics / brain penetration, species not specified (rodent models)
Settings: Sprague Dawley, rat, plasma, intraperitoneal, 20 mg/kg; rodent models; read-out: plasma half-life (abstract) (converted)
QUANTITY_NAME: half-life
Kindly format the answer as number then unit.

Prompt: Sample CN(C)CCCn1c(SCCc2c[nH]c3ccccc23)nc2ccc(F)cc2c1=O — what was its half-life?
Response: 336 min
